target: human Esterase Plasma (ES), BCHE (gene 590); assay: NVS_ENZ_hES: NovaScreen (NVS) Enzymatic Assay for human Esterase Plasma (ES) (AID 2283157)
Inconclusive results are not listed. Calls of active or inactive are those of the source. How the source made its calls: active means hit-call score of the fitted dose curve at least 0.9, where 1 is the maximum; inconclusive means response in the unintended direction; inactive means score below 0.9.
// allowed return values: active, inactive

CCOC(=O)O[C@H](C)OC(=O)c1ccc2c(c1)cc(C(=O)NC1CCN(C(C)C)CC1)n2Cc1cc(-c2ccc(Cl)s2)on1	active
CN(C)C(=O)C1(N2CCCCC2)CCN(CC[C@@]2(c3ccc(Cl)c(Cl)c3)CN(C(=O)c3ccccc3)CCO2)CC1	active
c1ccc(C[n+]2cccc3ccccc32)cc1	inactive

Request: How did this test come out for `CN(C)c1ccc(C(=C2C=CC(=[N+](C)C)C=C2)c2ccc(N(C)C)cc2)cc1` ?
Response: active

Request: Another: `CCN(Cc1cccnc1)C(=O)c1cccc(Cl)c1[C@]1(C)C(=O)N(Cc2ccc(OC)cc2OC)c2ccc(Cl)cc21`
Response: active
